Please respond with reported koff for every item in the list.
# TARGET_OF_ASSAY: T1, human serum albumin (human, UniProt P02768 25-609)
# T1 construct: also called HSA
# EXPERIMENT: SPR (Bruker Sierra SPR-32), HSA on chip, DARPin as analyte, 1:1 Langmuir fit
Unit s⁻¹ implied. Number only.

Query: What measured koff goes with MAM160 (two domain ankyrin repeat protein, N-terminal His6-TEV tag) (designed binder, also called 2D DARPin) MRGSHHHHHHENLYFQDLGKKLLEAARAGQDDEVRELLKAGADVNAKDYFSHTPLHLAARNGHLKIVEVLLKAGADVNAKDFAGKTPLHLAADAGHLEIVEVLLKAGADVNAQDIFGKTPADIAADAGHEDIAEVLQKAAGSPTPTPTTPTPTPTTPTPTPTGSDLGTKLLSAAADGQDDEVRELLQAGADVNAKDLFGYTPLHLAAWRGHLEIVEVLLEAGADVNAKDAAGLTPLHLAAWFGHLEIVEVLLEAGADVNAQDVQGVTPADLAAKEGHEDIAEVLQQAA ?
Result: 0.0105

Query: What measured koff goes with MAM283 (two domain ankyrin repeat protein, N-terminal His6-TEV tag) (designed binder, also called 2D DARPin) MRGSHHHHHHENLYFQDLGKKLLEAARAGQDDEVRELLKAGADVNAKDYFSHTPLHLAARNGHLKIVEVLLKAGADVNAKDFAGKTPLHLAADAGHLEIVEVLLKAGADVNAQDIFGKTPADIAADAGHEDIAEVLQKAAGSPTPTPTTPTPTPTTPTPTPTGSDLGKKLLAAAADGQDDEVRELLQAGADVNAKDLFGYTPLHLAAWRGHLEIVEVLLEAGADVNAKDAAGETPLHLAAWFGHLEIVEVLLEAGADVNAQDVQGKTPADLAAKEGHEDIAEVLQQAA ?
Result: 0.00924

Query: What measured koff goes with MAM282 (two domain ankyrin repeat protein, N-terminal His6-TEV tag) (designed binder, also called 2D DARPin) MRGSHHHHHHENLYFQDLGKKLLEAARAGQDDEVRELLKAGADVNAKDYFSHTPLHLAARNGHLKIVEVLLKAGADVNAKDFAGKTPLHLAADAGHLEIVEVLLKAGADVNAQDIFGKTPADIAADAGHEDIAEVLQKAAGSPTPTPTTPTPTPTTPTPTPTGSDLGKKLLAAAREGQDDEVRELLKAGADVNAKDIWGQTPLHIAAWFGHLEIVEVLLKAGADVNAKDQTGHTPLHLAAKFGHLEIVEVLLKAGADVNAQDLLGRTPADLAAEEGHEDIAEVLQKAA ?
Result: 0.00889

Query: What measured koff goes with MAM279 (two domain ankyrin repeat protein, N-terminal His6-TEV tag) (designed binder, Cleavage of the tag is not reported; also called 2D DARPin) MRGSHHHHHHENLYFQDLGKKLLEAARAGQDDEVRELLKAGADVNAKDYFSHTPLHLAARNGHLKIVEVLLKAGADVNAKDFAGKTPLHLAADAGHLEIVEVLLKAGADVNAQDIFGKTPADIAADAGHEDIAEVLQKAAGSPTPTPTTPTPTPTTPTPTPTGSDLGKKLLAAAAQGQDDEVRELLKAGANVNAKDLFGYTPLHLAAWRGHLEIVEVLLKAGADVNAKDAAGETPLHLAAWFGHLEIVEVLLKAGADVNAQDLQGKTPADLAAKEGHEDIAEVLQKAA ?
Result: 0.00923
